# protocol.text: Solubility of Compound 1 peptide, formulation development
# Type: physicochemical
# run.parameters: water (aqueous solution); acetate salt; read-out: aqueous solubility of the peptide
observed.property: solubility

Bench note: what solubility did H-GYYWSWIRQPPGKGEEWIG-OH [Compound 1] show?
< 500 µg/mL

Taken from patent US7294687B2.
